Recorded values, source patent US20250312352A1.

molecular target: GLP-1R (Homo sapiens); assay: GLP-1R activation cAMP assay (Assay 1 or Assay 2); conditions: cAMP increase in CHO cells stably expressing GLP-1R; compounds run on one of the two cAMP assays
In plain terms, low EC50, meaning strictly below 0.2 nM, gives True, and everything else gives False.

compound: COc1cc(C#Cc2cnn(C)c2)ncc1COc1cccc(-c2cc(F)c(Cc3nc4ccc(C(=O)O)cc4n3C[C@@H]3CCO3)cc2F)n1 [Example 145]
answer-label: False
//
compound: Cc1cc(Cc2nc3ccc(C(=O)O)cc3n2[C@@H]2COCC2(C)C)c(F)cc1-c1cccc(OCc2ncc(Cl)s2)n1 [Example 257]
answer-label: False
//
compound: O=C(O)c1ccc2nc(Cc3cc(F)c(-c4cccc(OCc5cc6n(n5)CCC6)n4)cc3F)n(C[C@@H]3CCO3)c2c1 [Example 65]
answer-label: True
//
compound: COc1nnc(COc2cccc(-c3ccc(Cc4nc5ccc(C(=O)O)cc5n4[C@@H]4COCC4(C)C)c(F)c3)n2)s1 [Example 401]
answer-label: False
//
compound: N#Cc1cc(F)c(COc2cccc(-c3cc(F)c(Cc4nc5ccc(C(=O)O)cc5n4C[C@@H]4CCO4)cc3F)n2)s1 [Example 52]
answer-label: True

----------
molecular target: GLP-1R (Homo sapiens, UniProt P43220); assay: GLP-1R activation cAMP assay (Assay 1 or Assay 2); settings: cAMP increase in CHO cells stably expressing GLP-1R; compounds run on one of the two cAMP assays
Sequence (P43220 24-463): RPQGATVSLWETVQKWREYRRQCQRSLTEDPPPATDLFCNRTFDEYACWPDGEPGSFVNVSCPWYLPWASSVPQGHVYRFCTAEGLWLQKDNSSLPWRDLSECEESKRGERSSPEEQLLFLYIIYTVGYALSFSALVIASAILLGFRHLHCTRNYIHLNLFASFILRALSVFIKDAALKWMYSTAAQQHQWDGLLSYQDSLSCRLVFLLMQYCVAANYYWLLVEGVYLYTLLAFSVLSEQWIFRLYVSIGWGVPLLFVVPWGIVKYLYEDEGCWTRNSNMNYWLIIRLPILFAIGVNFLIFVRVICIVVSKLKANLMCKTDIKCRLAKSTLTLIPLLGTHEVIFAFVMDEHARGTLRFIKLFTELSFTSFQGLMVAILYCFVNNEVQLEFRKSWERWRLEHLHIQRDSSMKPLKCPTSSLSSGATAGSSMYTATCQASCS
recorded-endpoint: EC50

compound: CC1(C)COC[C@H]1n1c(Cc2cc(F)c(-c3ccc(F)c(OCc4ncc(C(F)F)s4)n3)cc2F)nc2ccc(C(=O)O)cc21 [Example 416]
test-system: GLP-1R (Homo sapiens, UniProt P43220)
value-observed: 0.336 nM

compound: CNC(=O)c1cc(F)c(COc2cccc(-c3cc(F)c(Cc4nc5ccc(C(=O)O)cc5n4C[C@@H]4CCO4)cc3F)n2)cn1 [Example 243]
test-system: GLP-1R (Homo sapiens, UniProt P43220)
value-observed: 0.17 nM

compound: O=C(O)c1ccc2nc(Cc3cc(F)c(-c4cccc(OCc5ncc(-c6ccccn6)s5)n4)cc3F)n(C[C@@H]3CCO3)c2c1 [Example 107]
test-system: GLP-1R (Homo sapiens, UniProt P43220)
value-observed: 0.31 nM

compound: O=C(O)c1ccc2nc(Cc3cc(F)c(-c4cccc(OCc5ncc(C6CC6)o5)n4)cc3F)n(C[C@@H]3CCO3)c2c1 [Example 63]
test-system: GLP-1R (Homo sapiens, UniProt P43220)
value-observed: 0.89 nM

compound: CO[C@H](C)Cn1c(Cc2cc(F)c(-c3cccc(OCc4ncc(-c5cnn(C)c5)s4)n3)cc2F)nc2ccc(C(=O)O)cc21 [Example 224]
test-system: GLP-1R (Homo sapiens, UniProt P43220)
value-observed: 1.11 nM

compound: O=C(O)c1ccc2nc(Cc3cc(F)c(-c4cccc(OCc5cc(F)c(Br)s5)n4)cc3F)n(C[C@@H]3CCO3)c2c1 [Example 51]
test-system: GLP-1R (Homo sapiens, UniProt P43220)
value-observed: 0.21 nM

compound: COc1nnc(COc2cccc(-c3cc(F)c(Cc4nc5ccc(C(=O)O)cc5n4C[C@@H]4CCO4)cc3F)n2)s1 [Example 1]
test-system: GLP-1R (Homo sapiens, UniProt P43220)
value-observed: 0.27 nM

compound: C[C@@H](C#N)NC(=O)c1cc(Cl)c(COc2cccc(-c3cc(F)c(Cc4nc5ccc(C(=O)O)cc5n4C[C@@H]4CCO4)cc3F)n2)cn1 [Example 201]
test-system: GLP-1R (Homo sapiens, UniProt P43220)
value-observed: 0.39 nM

compound: CCOc1nnc(COc2cccc(-c3cc(F)c(Cc4nc5ccc(C(=O)O)cc5n4CC4(CF)CC4)cc3F)n2)s1 [Example 266]
test-system: GLP-1R (Homo sapiens, UniProt P43220)
value-observed: 0.367 nM

compound: O=C(O)c1ccc2nc(Cc3cc(F)c(-c4cccc(OCc5ccc(C#Cc6cccnc6)cc5F)n4)cc3F)n(C[C@@H]3CCO3)c2c1 [Example 139]
test-system: GLP-1R (Homo sapiens, UniProt P43220)
value-observed: 0.28 nM

compound: NC(=O)CNC(=O)c1ccc(COc2cccc(-c3cc(F)c(Cc4nc5ccc(C(=O)O)cc5n4C[C@@H]4CCO4)cc3F)n2)cn1 [Example 176]
test-system: GLP-1R (Homo sapiens, UniProt P43220)
value-observed: 2.19 nM

compound: O=C(O)c1ccc2nc(Cc3cc(F)c(-c4cccc(OCc5ncc(C#CC6(O)CCC6)s5)n4)cc3F)n(C[C@@H]3CCO3)c2c1 [Example 323]
test-system: GLP-1R (Homo sapiens, UniProt P43220)
value-observed: 0.281 nM

compound: Cn1nccc1NC(=O)c1cc(Cl)c(COc2cccc(-c3cc(F)c(Cc4nc5ccc(C(=O)O)cc5n4C[C@@H]4CCO4)cc3F)n2)cn1 [Example 196]
test-system: GLP-1R (Homo sapiens, UniProt P43220)
value-observed: 0.29 nM

compound: O=C(O)c1ccc2nc(Cc3cc(F)c(-c4cccc(OCc5ccc(-c6cn(C78CC(C7)C8)nn6)cc5F)n4)cc3F)n(C[C@@H]3CCO3)c2c1 [Example 216]
test-system: GLP-1R (Homo sapiens, UniProt P43220)
value-observed: 0.72 nM

compound: Cc1nnc(COc2cccc(-c3cc(F)c(Cc4nc5ccc(C(=O)O)cc5n4[C@@H]4COCC4(C)C)cc3F)n2)s1 [Example 290]
test-system: GLP-1R (Homo sapiens, UniProt P43220)
value-observed: 0.155 nM

compound: CC(C)(C)C#Cc1cnc(COc2cccc(-c3cc(F)c(Cc4nc5ccc(C(=O)O)cc5n4C[C@@H]4CCO4)cc3F)n2)s1 [Example 320]
test-system: GLP-1R (Homo sapiens, UniProt P43220)
value-observed: 0.537 nM

compound: Cc1nc(C)c(COc2cccc(-c3cc(F)c(Cc4nc5ccc(C(=O)O)cc5n4C[C@@H]4CCO4)cc3F)n2)s1 [Example 354]
test-system: GLP-1R (Homo sapiens, UniProt P43220)
value-observed: 0.622 nM

compound: O=C(O)c1ccc2nc(Cc3cc(F)c(-c4cccc(OCc5ncc(C#Cc6cnsc6)cc5F)n4)cc3F)n(C[C@@H]3CCO3)c2c1 [Example 285]
test-system: GLP-1R (Homo sapiens, UniProt P43220)
value-observed: 0.126 nM

compound: O=C(O)c1ccc2nc(Cc3cc(F)c(-c4cccc(OCc5ncc(Cl)s5)n4)cc3F)n(C[C@@H]3CCO3)c2c1 [Example 47]
test-system: GLP-1R (Homo sapiens, UniProt P43220)
value-observed: 0.09 nM

compound: O=C(O)c1ccc2nc(Cc3cc(F)c(-c4cccc(OCc5ncc(C#Cc6cncs6)s5)n4)cc3F)n(C[C@@H]3CCO3)c2c1 [Example 116]
test-system: GLP-1R (Homo sapiens, UniProt P43220)
value-observed: 0.15 nM

compound: O=C(O)c1ccc2nc(Cc3cc(F)c(-c4cccc(OCc5ccc(-c6cn(C7COC7)nn6)cc5F)n4)cc3F)n(C[C@@H]3CCO3)c2c1 [Example 215]
test-system: GLP-1R (Homo sapiens, UniProt P43220)
value-observed: 0.18 nM

compound: O=C(O)c1ccc2nc(Cc3cc(F)c(-c4cccc(OCc5ncc(OCC(F)F)s5)n4)cc3F)n(C[C@@H]3CCO3)c2c1 [Example 56]
test-system: GLP-1R (Homo sapiens, UniProt P43220)
value-observed: 7.19 nM

compound: O=C(O)c1ccc2nc(Cc3cc(F)c(-c4cccc(OCc5cc6ccccn6n5)n4)cc3F)n(C[C@@H]3CCO3)c2c1 [Example 28]
test-system: GLP-1R (Homo sapiens, UniProt P43220)
value-observed: 0.44 nM

compound: CNC(=O)c1cc(Cl)c(COc2cccc(-c3ccc(Cc4nc5ccc(C(=O)O)cc5n4[C@@H]4COCC4(C)C)c(F)c3)n2)cn1 [Example 399]
test-system: GLP-1R (Homo sapiens, UniProt P43220)
value-observed: 0.01 nM

compound: Cn1cc(-c2cnc(COc3cccc(-c4cc(F)c(Cc5nc6c(F)cc(C(=O)O)cc6n5C[C@@H]5CCO5)cc4F)n3)s2)cn1 [Example 87]
test-system: GLP-1R (Homo sapiens, UniProt P43220)
value-observed: 0.08 nM
